pIC50: −log10 of the molar value.
Replicase polyprotein 1ab (Severe acute respiratory syndrome-related coronavirus): reported pIC50 for various molecules.
reported_property: pIC50

>  <smiles_repr>
COc1cc(O)c2c(=O)cc(-c3ccc(OC)c(-c4c(O)cc(O)c5c(=O)cc(-c6ccc(O)cc6)oc45)c3)oc2c1

>  <observed>
4.49

$$$$
>  <smiles_repr>
C=C1CC[C@H]2[C@](C)(CO)CCC[C@]2(C)[C@H]1CC/C(C)=C\CO

>  <observed>
3.86

$$$$
>  <smiles_repr>
O=c1cc(-c2ccc(O)c(O)c2)oc2cc(O)cc(O)c12

>  <observed>
4.70

$$$$
>  <smiles_repr>
CC(C)c1cc2c(cc1O)[C@@]1(C)CCC[C@@](C)(C=O)[C@@H]1CC2

>  <observed>
3.79

$$$$
